Origin of values: the supplement of paper PMC8728848

Molecular target: Kdn(a2-3)Gal(b1-3)GlcNAc
Test: glycan array binding signal (z-score within array); higher = stronger binding
Details: glycan notation: IUPAC condensed, linker removed
The full list was thinned out, with the strongest signals kept by preference.
Recorded glycan array binding signal (z-score) by entry
MEASURED QUANTITY: glycan array binding signal (z-score)

- BINDER: "CCL2 (Coprinopsis cinerea), B3GA02 (protein) MDSPAVTLSAGNYIIYNRVLSPRGEKLALTYPGRQRTPVTVSPLDGSSEQAWILRSYDSNSNTWTISPVGSPNSQIGWGAGNVPVVLPPNNYVWTLTLTSGGYNIQDGKRTVSWSLNNATAGEEVSIGADATFSGRWVIEKV"
  MEASURED QUANTITY: "glycan array binding signal (z-score)"
  DATA VALUE: -0.257
- BINDER: "HMGB1 (Homo sapiens), P09429 (protein) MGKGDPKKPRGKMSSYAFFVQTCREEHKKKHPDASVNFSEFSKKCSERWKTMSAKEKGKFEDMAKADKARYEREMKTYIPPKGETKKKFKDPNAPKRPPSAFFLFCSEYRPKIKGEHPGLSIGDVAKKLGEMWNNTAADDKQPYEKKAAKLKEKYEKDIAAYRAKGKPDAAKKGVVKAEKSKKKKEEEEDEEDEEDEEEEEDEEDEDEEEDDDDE"
  MEASURED QUANTITY: "glycan array binding signal (z-score)"
  DATA VALUE: -0.363
- BINDER: "CML1 (Coprinopsis cinerea) (protein) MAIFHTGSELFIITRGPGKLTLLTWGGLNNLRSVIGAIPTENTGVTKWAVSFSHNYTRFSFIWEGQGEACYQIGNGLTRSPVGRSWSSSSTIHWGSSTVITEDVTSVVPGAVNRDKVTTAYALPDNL"
  MEASURED QUANTITY: "glycan array binding signal (z-score)"
  DATA VALUE: -0.319
- BINDER: "CLC (Homo sapiens), Q9UBD9 (protein) MDLRAGDSWGMLACLCTVLWHLPAVPALNRTGDPGPGPSIQKTYDLTRYLEHQLRSLAGTYLNYLGPPFNEPDFNPPRLGAETLPRATVDLEVWRSLNDKLRLTQNYEAYSHLLCYLRGLNRQAATAELRRSLAHFCTSLQGLLGSIAGVMAALGYPLPQPLPGTEPTWTPGPAHSDFLQKMDDFWLLKELQTWLWRSAKDFNRLKKKMQPPAAAVTLHLGAHGF"
  MEASURED QUANTITY: "glycan array binding signal (z-score)"
  DATA VALUE: -0.192
- BINDER: "Mincle (Bos taurus) (protein) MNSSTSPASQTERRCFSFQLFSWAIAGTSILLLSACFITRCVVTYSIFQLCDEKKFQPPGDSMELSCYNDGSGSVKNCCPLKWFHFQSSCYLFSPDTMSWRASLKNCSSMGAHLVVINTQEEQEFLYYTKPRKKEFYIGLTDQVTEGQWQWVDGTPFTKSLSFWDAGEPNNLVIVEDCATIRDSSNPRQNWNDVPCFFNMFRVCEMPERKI"
  MEASURED QUANTITY: "glycan array binding signal (z-score)"
  DATA VALUE: 0.033
- BINDER: "Dectin-1 CTLD (Mus musculus), Q6QLQ4 (protein) MKYHSHIENLDEDGYTQLDFSTQDIHKRPRGSEKGSRAPSSPWRPIAVGLGILCFVVVVVAAVLGALAFWRHNSGRNPEEKDNFLSRNKENHKPTESSLDEKVAPSKASQTTGGFSQSCLPNWIMHGKSCYLFSFSGNSWYGSKRHCSQLGAHLLKIDNSKEFEFIESQTSSHRINAFWIGLSRNQSEGPWFWEDGSAFFPNSFQVRNTVPQESLLHNCVWIHGSEVYNQICNTSSYSICEKEL"
  MEASURED QUANTITY: "glycan array binding signal (z-score)"
  DATA VALUE: -0.044
